# Tested On: μ-receptor (Homo sapiens (Human))
# Assay Name: Receptor binding, competitive displacement of [3H]DAMGO
# Conditions Used: 0.25 nM [3H]DAMGO, CHO cell membrane protein, 60 min at 25° C.
Counter-ions that a name gives are not always drawn.
Measured Parameter: Ki

[
  {
    "Molecule": "COC1(c2ccc(C(N)=O)s2)C2CCCC1CN(CCN1CCNC1=O)C2 (stereo not shown) [Compound 95]",
    "Ki": "1 to 5 nM"
  },
  {
    "Molecule": "COC1(c2cccc(C(N)=O)c2)C2CCCC1CN(CCc1cnn[nH]1)C2.Cl (stereo not shown) [Compound 155, hydrochloride]",
    "Ki": "< 1 nM"
  },
  {
    "Molecule": "COC1(c2cccc(C(N)=O)c2)C2CCCC1CN(C1CCC(F)(F)CC1)C2 (stereo not shown) [Compound 9, hydrochloride]",
    "Ki": "< 1 nM"
  },
  {
    "Molecule": "COC[C@H](C)N1CC2CCCC(C1)C2(OC)c1ccnc(C(N)=O)c1.Cl (single isomer, unassigned) [Compound 61, hydrochloride]",
    "Ki": "1 to 5 nM"
  },
  {
    "Molecule": "COC1(c2cccc(C(N)=O)c2)C2CCCC1CN(Cc1cnn[nH]1)C2 (stereo not shown) [Compound 75, hydrochloride]",
    "Ki": "< 1 nM"
  }
]

Problem: Query: Ki; subject: COC1(c2cccc(C(N)=O)c2)C2CCCC1CN(CCC(F)F)C2 (stereo not shown) [Compound 159]
Result: < 1 nM

Problem: Please give the result for COC1(c2ccnc(C(N)=O)c2)C2CCCC1CN([C@@H]1CC[C@@H]1c1ccccc1)C2 (stereo partly shown) [Compound 110, hydrochloride] too.
Result: > 5 nM

---

# Tested On: μ-receptor (Homo sapiens (Human))
# Assay Name: Receptor binding, competitive displacement of [3H]DAMGO
# Conditions Used: 0.25 nM [3H]DAMGO, CHO cell membrane protein, 60 min at 25° C.
Structures can show the parent of a compound that is named as a salt.
Measured Parameter: Ki

Problem: Query: Ki; subject: COC1(c2ccnc(C(N)=O)c2)C2CCCC1CN(C)C2.Cl (stereo not drawn) [Compound 43, hydrochloride]
Result: < 1 nM

Problem: Please give the result for COC1(c2ccnc(C(N)=O)c2)C2CCCC1CN([C@@H]1CC[C@H]1c1ccccc1)C2 (stereo partly drawn) [Compound 109, hydrochloride] too.
Result: < 1 nM

Problem: Please give the result for COC1(c2cccc(C(N)=O)c2)C2CCCC1CN(CC1COC1)C2 (stereo not drawn) too.
Result: < 1 nM

Problem: Please give the result for COC1(c2cccc(C(N)=O)c2)C2CCCC1CN(CC(F)(F)F)C2 (stereo not drawn) [Compound 32, hydrochloride] too.
Result: > 5 nM

Problem: Please give the result for COC1(c2cccc(C(N)=O)c2)C2CCCC1CN(C1CC3CCC(C1)O3)C2 (single isomer, unassigned) [Compound 14, hydrochloride] too.
Result: 1 to 5 nM

---

# Tested On: human μ opioid receptor (Homo sapiens (Human), UniProt P35372)
# Assay Name: Functional activity ([35S]GTPγS binding)
# Type: biochemical
# Conditions Used: [35S]GTPγS 0.080 nM, CHO cell membranes, 60 min at 30° C., filtration
pEC50: −log10 of the molar value. Where a name gives a salt, the structure may show the parent alone.
Recorded pEC50 values for a group of compounds are listed next.

The examples below pair each entry with its known result.
[
  {
    "Compound": "COCCN1CC2CCCC(C1)C2(OC)c1cccc(C(N)=O)c1.Cl (stereo not shown) [Compound 128, hydrochloride]",
    "pEC50": "7.12 to 8.00"
  },
  {
    "Compound": "COC1(c2ccnc(C(N)=O)c2)C2CCCC1CN(Cc1cnco1)C2 (stereo not shown) [Compound 115, hydrochloride]",
    "pEC50": "7.12 to 8.00"
  },
  {
    "Compound": "COC1(c2ccc(C(N)=O)s2)C2CCCC1CN(C1CCCCC1)C2 (stereo not shown) [Compound 101, hydrochloride]",
    "pEC50": "< 7.12"
  }
]

Attention now shifts to the item below.
Problem: Query: pEC50; subject: COC1(c2ccnc(C(N)=O)c2)C2CCCC1CN(Cc1ccccn1)C2 (stereo not shown) [Compound 67, dihydrochloride]
Result: 7.12 to 8.00

---

Recorded pEC50 values for a group of compounds are listed next.
# Tested On: human μ opioid receptor (Homo sapiens (Human), UniProt P35372)
# Assay Name: Alternate functional activity ([35S]GTPγS binding) assay, SPA beads
# Assay type: biochemical
# Conditions Used: alternate assay: [35S]GTPγS 0.020 nM, CHO cell membranes with WGA PVT SPA beads
pEC50: −log10 of the molar value. Where a name gives a salt, the structure may show the parent alone.

The examples below pair each entry with its known result.
[
  {
    "Compound": "COC1(c2cccc(C(N)=O)c2)C2CCCC1CN(C[C@@H]1C[C@H]3CC[C@@H](C1)O3)C2 (stereo partly shown)",
    "pEC50": "> 8.00"
  },
  {
    "Compound": "COC1(c2cccc(C(N)=O)c2)C2CCCC1CN([C@H](C)c1cnc[nH]1)C2 (stereo partly shown) [Compound 20, hydrochloride]",
    "pEC50": "7.12 to 8.00"
  },
  {
    "Compound": "CCOC1(c2cc(C(N)=O)ccc2Cl)C2CCCC1CNC2 (stereo not shown)",
    "pEC50": "< 7.12"
  }
]

Problem: Query: pEC50; subject: COC1(c2cccc(C(N)=O)c2)C2CCCC1CN(C1CN(c3ccccc3)C1)C2 (stereo not shown)
Result: > 8.00

Problem: Please give the result for COC1(c2cccc(C(N)=O)c2)C2CCCC1CN(C1C[C@@H]3C[C@@H]3C1)C2 (stereo partly shown) too.
Result: > 8.00

Problem: Please give the result for COC1(c2cc(F)cc(C(N)=O)c2)C2CCCC1CNC2 (stereo not shown) too.
Result: 7.12 to 8.00

Problem: Please give the result for COC1(c2cc(C(N)=O)ccc2F)C2CCCC1CN(C)C2 (stereo not shown) [Compound 194] too.
Result: 7.12 to 8.00

Problem: Please give the result for COC1(c2ccnc(C(N)=O)c2)C2CCCC1CN(C[C@@H]1CCCCO1)C2 (stereo partly shown) too.
Result: 7.12 to 8.00

Problem: Please give the result for COC1(c2ccnc(C(N)=O)c2)C2CCCC1CN(C[C@H]1CCCCO1)C2 (stereo partly shown) too.
Result: 7.12 to 8.00

Problem: Please give the result for NC(=O)c1cccc(C2(OCC(F)F)C3CCCC2CNC3)c1 (stereo not shown) too.
Result: 7.12 to 8.00

Problem: Please give the result for COC1(c2cc(C(N)=O)ccc2F)C2CCCC1CN(C)C2 (stereo not shown) [Compound 173] too.
Result: 7.12 to 8.00

Problem: Please give the result for COC1(c2ccnc(C(N)=O)c2)C2CCCC1CN(C1CCC(F)(F)CC1)C2 (stereo not shown) too.
Result: < 7.12

Problem: Please give the result for COC1(c2cccc(C(N)=O)c2)C2CCCC1CN(Cc1cnc(C)[nH]1)C2 (stereo not shown) [Compound 149, hydrochloride] too.
Result: > 8.00

Problem: Please give the result for CCOC1(c2cccc(C(N)=O)c2F)C2CCCC1CNC2 (stereo not shown) too.
Result: < 7.12

---

# Tested On: human μ opioid receptor (Homo sapiens (Human))
# Assay Name: Functional activity ([35S]GTPγS binding)
# Assay type: biochemical
# Conditions Used: [35S]GTPγS 0.080 nM, CHO cell membranes, 60 min at 30° C., filtration
Where a name gives a salt, the structure may show the parent alone.
Measured Parameter: EC50

[
  {
    "Compound": "COC1(c2cccc(C(N)=O)c2)C2CCCC1CN(CCc1ccccc1)C2 (stereo not shown) [Compound 24, hydrochloride]",
    "EC50": "< 10 nM"
  },
  {
    "Compound": "COC1(c2ccnc(C(N)=O)c2)C2CCCC1CN(C1CCC1)C2 (stereo not shown) [Compound 90, hydrochloride]",
    "EC50": "10 to 75 nM"
  },
  {
    "Compound": "COC1(c2ccnc(C(N)=O)c2)C2CCCC1CN([C@@H]1CC[C@H]1c1ccccc1)C2 (stereo partly shown) [Compound 109, hydrochloride]",
    "EC50": "< 10 nM"
  },
  {
    "Compound": "COC1(c2ccnc(C(N)=O)c2)C2CCCC1CN(C1CCOCC1)C2.Cl (stereo not shown) [Compound 56, hydrochloride]",
    "EC50": "> 75 nM"
  },
  {
    "Compound": "COC1(c2cccc(C(N)=O)c2)C2CCCC1CN(C1COC1)C2 (stereo not shown)",
    "EC50": "10 to 75 nM"
  },
  {
    "Compound": "COC1(c2ccnc(C(N)=O)c2)C2CCCC1CN([C@H]1C[C@H](C)C1)C2 (stereo partly shown) [Compound 131, hydrochloride]",
    "EC50": "10 to 75 nM"
  },
  {
    "Compound": "COC1(c2ccnc(C(N)=O)c2)C2CCCC1CN(Cc1cccnc1)C2 (stereo not shown) [Compound 68, dihydrochloride]",
    "EC50": "10 to 75 nM"
  },
  {
    "Compound": "COC1(c2ccnc(C(N)=O)c2)C2CCCC1CN([C@H]1CCCOC1)C2 (stereo partly shown) [Compound 132, hydrochloride]",
    "EC50": "> 75 nM"
  },
  {
    "Compound": "COC1(c2ccnc(C(N)=O)c2)C2CCCC1CN(C13CC(C1)C3)C2 (stereo not shown) [Compound 103, hydrochloride]",
    "EC50": "> 75 nM"
  },
  {
    "Compound": "COC1(c2ccnc(C(N)=O)c2)C2CCCC1CN(CCC1CC1)C2 (stereo not shown) [Compound 86, hydrochloride]",
    "EC50": "10 to 75 nM"
  }
]

Problem: Query: EC50; subject: COC1(c2cccc(C(N)=O)c2)C2CCCC1CN(CCN1C(=O)CCC1=O)C2.Cl (stereo not shown) [Compound 65, hydrochloride]
Result: < 10 nM

Problem: Please give the result for COC1(c2ccnc(C(N)=O)c2)C2CCCC1CNC2.Cl (stereo not shown) [Compound 70, hydrochloride] too.
Result: > 75 nM

Problem: Please give the result for COC1(c2ccnc(C(N)=O)c2)C2CCCC1CN([C@@H]1CCCOC1)C2.Cl (stereo partly shown) [Compound 60, hydrochloride] too.
Result: > 75 nM

Problem: Please give the result for COC1(c2ccc(C(N)=O)s2)C2CCCC1CN(CC1CC1)C2 (stereo not shown) [Compound 36, hydrochloride] too.
Result: 10 to 75 nM

Problem: Please give the result for COC1(c2ccnc(C(N)=O)c2)C2CCCC1CN(C1CCC3(CC1)COC3)C2.O=C(O)CC(O)C(=O)O (stereo not shown) too.
Result: 10 to 75 nM

Problem: Please give the result for COC1(c2ccnc(C(N)=O)c2)C2CCCC1CN(Cc1ccn[nH]1)C2 (stereo not shown) [Compound 100, hydrochloride] too.
Result: 10 to 75 nM
